SYSTEM UNDER TEST: SARS-CoV-2 spike receptor binding domain (RBD), S protein residues 319-539 (SARS-CoV-2, UniProt P0DTC2 319-539)
ASSAY SUMMARY: ELISA on coated RBD
PROPERTY LABEL: EC50 (ng/mL)
Report as a plain number; the unit ng/mL is understood.

Some solved cases for reference:
C516 (antibody, V domains shown) VH: QVQLVQSGAEVKKPGSSVKVSCKASGGTFSSYAISWVRQAPGQGLEWMGRIIPMLVIATYARKFQGRVTITADKSTSTAYMELSSLRSEDTAVYYCARGVVAATPGNFDIWGQGTMVTVSS VL: EIVMTQSPATLSVSPGERATLSCRASQSVSSNLAWYQQKPGQAPRLLIYGASTRATGIPARFSGSGSGTEFTLTISSLQSEDFAVYYCQQYNNGLTFGGGTKVEIK    5.72
C515 (antibody, V domains shown) VH: EVQLVESGGGLVQPGGSLRLSCAASGFIVSSNYMSWVRQAPGKGLEWVSILYSGGSTYYADSVKGRFTISRDNSKNTLYLQMNSLRAEDTAVYYCARDLVVYGADYWGQGTLVTVSS VL: DIQLTQSPSFLSASVGDRVTITCRASQGISSYLAWYQQKPGKAPKLLIYAASTLQSGVPSRFSGSGSGTEFTLTISSLQPEDFATYYCQQLNSYPPPFGGGTKVEIK    1.73

Which EC50 is listed for C512 (antibody, V domains shown) VH: QVQLQESGPGLVKPSGTLSLTCAVSAGSISSNNWWSWVRQPPGKGLEWIGEVYHNGNINYNPSLKSRVTLSVDKSKNQFSLKLSSVTAADTAVYYCAKGGDRAMGPEYFDSWGQGTLVTVSS VL: QSALTQPASVSGSPGQSITISCTGTSSDVGANNYVSWYQQHPGKAPKLMIYDVNERPSGVSNRFSGSKSGNTASLTISGLQTEDEADYYCSSFASSSTLLFGGGTKLTVL ?
1.68
